Kindly return yes if reported logP is no lower than 1; return no if it is lower.

Worked examples, 4 compounds total:
INSERT INTO results (compound, class_name) VALUES
  ('c1ccc(-c2cc3ccccc3[nH]2)nc1', 'yes'),
  ('CCOC(=O)NNc1ccccc1', 'yes'),
  ('CC(C)c1ccc(C(O)C(CO)NC(=O)C(Cl)Cl)cc1 (configuration not stated)', 'yes'),
  ('CCCCNc1ccc(C(=O)OCCOCCOCCOCCOCCOCCOCCOCCOCCOC)cc1', 'yes');

Does the compound "CNC1=CC(=O)C(NC)=CC1=O" have recorded logP that is 1 or more?
no

Answer whether logP of "N#CCC#N" is greater than or equal to 1.
no

Check if logP >= 1 (inclusive). Item: "NC(=S)N1CCCCC1"
no

Given "N#Cc1cccc(C#N)c1" , state whether its logP is at least 1.
no

Quick check, logP >= 1? "N#Cc1cccc(F)c1"
yes

Could you verify whether the entry "Cc1ccc(/N=C/N(C)/C=N/c2ccc(C)cc2C)c(C)c1" shows logP of no less than 1?
yes

Entry "COc1ccccc1C(C)=O" : is its logP no less than 1?
yes

Textbook exercise: given the entry "Cn1c(N)nc2ccccc21" , state whether its logP is greater than or equal to 1.
no

---

Entries and their logP
Answer field: number only, no words.

# example entries with known answers
INSERT INTO results (molecule, measured_result) VALUES
  ('CCCCCCCCn1cc(C)c(=O)[nH]c1=O', 3.04),
  ('CC(C(=O)O)c1ccc(N2C(=O)C3CCCCC3C2O)cc1 (centres undefined)', 2.95),
  ('CC(C)(C)C(=O)c1ccccc1', 3);

Look up logP: "O=C(Nc1ccccc1)Nc1ccccc1"
3

---

quantity.kind: logP
Lab note: record the figure alone, no unit after it.

Below are worked cases with known answers.
INSERT INTO results (compound_smiles, measured_result) VALUES
  ('O=[N+]([O-])c1ccccc1SSc1ccccc1[N+](=O)[O-]', 3.37),
  ('Clc1cc(Cl)nc(-c2ccccc2)n1', 4.17);

# lookup: logP of "COC(=O)C(C)(C)C"
1.83

---

Reported logP values for the following molecules.
Give the value as a plain number.

INSERT INTO assay_data (molecule, measured_result) VALUES
  ('CCOC(=O)C(C(=O)OCC)=C(C(=O)OCC)C(=O)OCC', 2.63),
  ('O=[N+]([O-])c1ccc(/C=C/c2ncc[nH]2)o1', 1.32),
  ('CCC(=O)N(C)C', -0.11),
  ('CCC(C)(C)Cl', 2.52),
  ('BrC(Br)(Br)Br', 3.42),
  ('C=CCn1cccn1', 0.35);

Look at this molecule and give its reported logP. "Cc1[nH]oc(=O)c1/N=N/c1ccccc1Cl"
2.6

Entry "O=c1c2ccccc2oc2ccccc12" : reported logP = ?
3.39

What logP value was documented for this molecule, "CN(C)C(=S)NN" ?
-0.3

Entry under review: "CN(C)/C=C/[N+](=O)[O-]" . Reported logP?
-0.8

May I ask what logP has been recorded for "c1ccc2c(c1)CCc1ccccc1-2" ?
4.52

Would you kindly share the measured logP for "C=C(C)Cl" ?
2

Can you share its logP? I mean this molecule: "CCc1cccc(C)c1NC(=O)OC(C)C"
2.52

Can you look up the measured logP of "CCCN(CCC)c1c([N+](=O)[O-])cc(S(N)(=O)=O)cc1[N+](=O)[O-]" for me?
3.73

Reported logP, molecule CCC12CCN(C)C(Cc3ccc(O)cc31)C2C (stereo not given) : ____
-1.14

State the recorded logP for this entry: "C1=C(c2ccccc2)CCCC1"
4.53

// logP lookup, key: "Cc1ccccc1CO"
1.58

Please report the recorded logP for "O=Cc1ccccn1" .
0.44

I have this molecule here, "CCOc1ccccc1OCC" , and I need its recorded logP.
2.42

Which logP value belongs to O=C1CC(Sc2ccncc2)N1 (stereo not given) ?
0.61

I would be grateful if you could share the reported logP for CCCSP(=O)(OCC)Oc1cnn(-c2ccc(Cl)cc2)c1 (stereo not given) .
3.77

Which measured logP value corresponds to CC(C)(C)NCC(O)COCC=Cc1ccccc1 (stereo not given) ?
2.69

Fill blank: measured logP of the molecule CC(Cl)[N+](=O)[O-] (stereo not given) is ____.
1.1
